test: anti-His antibody binders, primary screen, artefact control for SMM control protein annotation, biochemical, small-molecule microarray, 635 nm fluorescence (AID 1128); conditions: anti-His Alexa647 antibody binding, higher = more signal;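 further: score merges feature fluorescence with signal-to-noise for each printed compound spot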
property measured: composite z-score
Number only, please.

Field: example entries. Status: answers known.
C=CCOC(=O)[C@H]1[C@@H]2C(=O)O[C@@H](c3ccccc3)[C@@H](c3ccccc3)N2[C@@H](c2ccc(OCCOC(=O)[C@H]3C[C@H]4C(=O)N[C@@H](CC(C)C)C(=O)N4[C@H]3c3ccc(O)cc3)cc2)[C@]12C(=O)Nc1ccc(I)cc12 :: 0.756
COc1ccc(C(O)C2C=CC3C(=O)N(c4ccccc4)C(=O)C3N2Nc2ccccc2F)cc1OCc1ccccc1 (configuration not stated) :: 0.981
CCOC(=O)C[C@H]1[C@H](OC(=O)Cc2ccc3c(c2)OCO3)[C@@H](NC(=O)c2ccc3ccccc3c2)c2cc(OCCCO)ccc2N1C(=O)c1ccccc1 :: 0.638
C#CCNC(=O)[C@H](Cc1ccccc1)NC(=O)CCC(=O)O :: -1.08
CC(C)c1ccc(NN2C(C(O)C(c3ccccc3)c3ccccc3)C=CC3C(=O)N(c4ccccc4)C(=O)C32)cc1 (configuration not stated) :: 0.49

In: Given `CCc1oc(CC[C@@H](CO)NC(=O)NCCn2cc(C3(O)CCCCC3)nn2)c(C(=O)OC)c1C(=O)OC` , respond with its composite z-score.
Out: 2.48

In: Given CC(C)C[C@H]1NC(=O)[C@@]23C(=O)N[C@@H](Cc4ccccc4)C2[C@H](C)[C@@]2(C)O[C@H]2C3/C=C/C/C=C\CNC(=O)[C@H](Cc2ccccc2)NC1=O (some centres not stated) , respond with its composite z-score.
Out: 0.218
